What IA(β3) was measured for each of the following?
- system under test: human β3-adrenergic receptor (Homo sapiens)
- Construct: Full length β3 AR clones (402 amino acids) containing the last 6 amino acids of hβ3—AR are prepared; expressed in transfected cells; host or cells: CHO cells
- experimental protocol: cAMP response (SPA kit) in CHO cells transfected with human β3 adrenergic receptor
- Type: cell-based
- details: maximal response of compound compared to maximal response of isoproterenol at 10^-5 M; CHO cells, human β3-AR
In your answer, state the number alone without any accompanying words.

For Cc1ccc(CCCNC(=O)N2CCC(Nc3ccc(CCNC[C@H](O)COc4ccc(O)cc4)cc3)CC2)cc1 [Example 29] the compound record lists IA(β3) as 1

For O=C(OCc1cc(F)ccc1F)N1CCC(Nc2ccc(CCNC[C@H](O)COc3ccc(O)cc3)cc2)CC1 [Example 122] the compound record lists IA(β3) as 0.81

For O=C(NCC(F)(F)F)N1CCC(Nc2ccc(CCNC[C@H](O)COc3ccc(O)cc3)cc2)CC1 [Example 13] the compound record lists IA(β3) as 0.82

For O=C(NCC1CCCC1)N1CCC(Nc2ccc(CCNC[C@H](O)COc3ccc(O)cc3)cc2)CC1 [Example 70] the compound record lists IA(β3) as 1

For O=C(NCc1ccc(Cl)c(Cl)c1)N1CCC(Nc2ccc(CCNC[C@H](O)COc3ccc(O)cc3)cc2)CC1 [Example 21] the compound record lists IA(β3) as 1

For CCN(CC)C(=O)CCNC(=O)N1CCC(Nc2ccc(CCNC[C@H](O)COc3ccc(O)cc3)cc2)CC1 [Example 89] the compound record lists IA(β3) as 0.83

For CN(C)C(=O)Oc1ccc(CNC(=O)N2CCC(Nc3ccc(CCNC[C@H](O)COc4ccc(O)cc4)cc3)CC2)c(F)c1 [Example 84] the compound record lists IA(β3) as 0.75

---

- system under test: human β3-adrenergic receptor (Homo sapiens, UniProt P13945)
- Construct: Full length β3 AR clones (402 amino acids) containing the last 6 amino acids of hβ3—AR are prepared; expressed in transfected cells; host or cells: CHO cells
- Sequence (P13945 whole entry): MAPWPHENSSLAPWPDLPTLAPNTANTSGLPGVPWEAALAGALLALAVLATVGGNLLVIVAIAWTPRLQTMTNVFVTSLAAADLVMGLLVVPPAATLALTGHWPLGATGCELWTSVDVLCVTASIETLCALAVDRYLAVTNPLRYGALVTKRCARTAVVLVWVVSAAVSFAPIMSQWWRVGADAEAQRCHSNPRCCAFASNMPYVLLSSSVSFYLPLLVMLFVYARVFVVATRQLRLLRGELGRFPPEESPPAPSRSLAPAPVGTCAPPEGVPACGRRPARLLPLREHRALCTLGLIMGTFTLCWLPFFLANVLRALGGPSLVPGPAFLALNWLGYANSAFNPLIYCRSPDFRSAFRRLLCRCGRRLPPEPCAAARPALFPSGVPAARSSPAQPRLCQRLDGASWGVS
- experimental protocol: cAMP response (SPA kit) in CHO cells transfected with human β3 adrenergic receptor
- Type: cell-based
- details: CHO cells expressing human β3-AR; 10^-9 M to 10^-5 M; 30 min at 37° C.; cAMP by SPA; read-out: EC50(β3)
What pEC50 was measured for each of the following?
Conceptually, pEC50 converts a concentration in mol/L into minus its log10.

For CC(=O)Nc1ccc(S(=O)(=O)N2CCC(Nc3ccc(CCNC[C@H](O)COc4ccc(O)cc4)cc3)CC2)cc1 the molecule record lists pEC50 as 7.48

For O=C(NCCCCCCCCF)N1CCC(Nc2ccc(CCNC[C@H](O)COc3ccc(O)cc3)cc2)CC1 the molecule record lists pEC50 as 6.77

For O=C(CCNC(=O)N1CCC(Nc2ccc(CCNC[C@H](O)COc3ccc(O)cc3)cc2)CC1)N1CCOCC1 the molecule record lists pEC50 as 7.11

For O=C(NCCc1ccc(F)cc1)N1CCC(Nc2ccc(CCNC[C@H](O)COc3ccc(O)cc3)cc2)CC1 the molecule record lists pEC50 as 7.47

For CCOC(=O)c1ccc(N2CCC(Nc3ccc(CCNC[C@H](O)c4ccc(O)c(NS(C)(=O)=O)c4)cc3)CC2)cc1 the molecule record lists pEC50 as 7.60

For CCCCCCNC(=O)N1CCC(Sc2ccc(CCNC[C@H](O)COc3ccc(O)cc3)cc2)CC1 the molecule record lists pEC50 as 6.21

For COc1ccc(C2CCN(C(=O)N3CCC(Nc4ccc(CCNC[C@H](O)COc5ccc(O)cc5)cc4)CC3)CC2)cc1OC1CCCC1 the molecule record lists pEC50 as 7.82

---

What pEC50 was measured for each of the following?
- system under test: human β3-adrenergic receptor (Homo sapiens, UniProt P13945)
- Construct: Full length β3 AR clones (402 amino acids) containing the last 6 amino acids of hβ3—AR are prepared; expressed in transfected cells; host or cells: CHO cells
- experimental protocol: cAMP response (SPA kit) in CHO cells transfected with human β3 adrenergic receptor
- Assay type: cell-based
- details: CHO cells expressing human β3-AR; 10^-9 M to 10^-5 M; 30 min at 37° C.; cAMP by SPA; read-out: EC50(β3)
Conceptually, pEC50 converts a concentration in mol/L into minus its log10.

For COc1cccc(CCNC(=O)N2CCC(Nc3ccc(CCNC[C@H](O)COc4ccc(O)cc4)cc3)CC2)c1 [Example 6] the compound record lists pEC50 as 6.97

For O=C(O)COc1ccc(NC(=O)N2CCC(Nc3ccc(CCNC[C@H](O)COc4ccc(O)cc4)cc3)CC2)cc1 [Example 58] the compound record lists pEC50 as 6.49

For CS(=O)(=O)Nc1cc([C@@H](O)CNCCc2ccc(NC3CCN(C(=O)c4ccc(C(=O)O)cc4)CC3)cc2)ccc1O [Example 105] the compound record lists pEC50 as 7.43

For O=C(O)COc1ccc(CNC(=O)N2CCC(Nc3ccc(CCNC[C@H](O)COc4ccc(O)cc4)cc3)CC2)c(F)c1 [Example 86] the compound record lists pEC50 as 6.90

For CS(=O)(=O)Nc1cc([C@@H](O)CNCCc2ccc(NC3CCN(C(=O)N4CCC(C(=O)O)CC4)CC3)cc2)ccc1O [Example 52] the compound record lists pEC50 as 7.16

For CS(=O)(=O)Nc1cc([C@@H](O)CNCCc2ccc(NC3CCN(c4ccc(S(=O)(=O)N5CCCCC5)cc4)CC3)cc2)ccc1O [Example 119] the compound record lists pEC50 as 8.10

For O=C(NCc1cccc(F)c1)N1CCC(Nc2ccc(CCNC[C@H](O)COc3ccc(O)cc3)cc2)CC1 [Example 27] the compound record lists pEC50 as 7.22

---

What melting point was measured for each of the following?
Structures can show the parent of a compound that is named as a salt.

For CNC(=O)N1CCC(Nc2ccc(CCNC[C@H](O)COc3ccc(O)cc3)cc2)CC1 (as salt: salt) the compound record lists melting point as 72 to 77 °C

For Cc1ccc(C(=O)CCNC(=O)N2CCC(Nc3ccc(CCNC[C@H](O)COc4ccc(O)cc4)cc3)CC2)cc1 the compound record lists melting point as 85 to 89 °C

For O=C(NCc1ccc(Cl)c(Cl)c1)N1CCC(Nc2ccc(CCNC[C@H](O)COc3ccc(O)cc3)cc2)CC1 (as salt: ammonium) the compound record lists melting point as 94 to 97 °C

For CN(C)C(=O)Oc1ccc(CCNC(=O)N2CCC(Nc3ccc(CCNC[C@H](O)COc4ccc(O)cc4)cc3)CC2)cc1 the compound record lists melting point as 86 to 88 °C

For CCOC(=O)C1CCN(C(=O)N2CCC(Nc3ccc(CCNC[C@H](O)c4ccc(O)c(NS(C)(=O)=O)c4)cc3)CC2)CC1 the compound record lists melting point as 93 to 97 °C

For CCOC(=O)C1CCCN(C(=O)N2CCC(Nc3ccc(CCNC[C@H](O)c4ccc(O)c(NS(C)(=O)=O)c4)cc3)CC2)C1 (stereo partly drawn) (as salt: salt) the compound record lists melting point as 106 to 108 °C

---

Where a name gives a salt, the structure may show the parent alone.
assay endpoint: melting point

For CC(C)NC(=O)N1CCC(Nc2ccc(CCNC[C@H](O)COc3ccc(O)cc3)cc2)CC1 (as salt: salt) [Example 11] the compound record lists melting point as 89 to 96 °C

For CS(=O)(=O)Nc1cc([C@@H](O)CNCCc2ccc(NC3CCN(c4nc(-c5ccccc5)cs4)CC3)cc2)ccc1O (as salt: salt) [Example 118] the compound record lists melting point as 142 to 145 °C

For CS(=O)(=O)Nc1cc([C@@H](O)CNCCc2ccc(NC3CCN(C(=O)NCc4cc(F)ccc4F)CC3)cc2)ccc1O [Example 76] the compound record lists melting point as 116 to 118 °C

For CS(=O)(=O)Nc1cc([C@@H](O)CNCCc2ccc(NC3CCN(C(=O)c4ccc(C(=O)O)cc4)CC3)cc2)ccc1O (as salt: salt) [Example 105] the compound record lists melting point as > 200 °C

For O=C(NCc1cc(F)cc(F)c1)N1CCC(Nc2ccc(CCNC[C@H](O)COc3ccc(O)cc3)cc2)CC1 [Example 24] the compound record lists melting point as 89 to 95 °C

For O=C(c1cc2cccc([N+](=O)[O-])c2[nH]1)N1CCC(Nc2ccc(CCNC[C@H](O)COc3ccc(O)cc3)cc2)CC1 [Example 95] the compound record lists melting point as 100 to 102 °C

---

- system under test: human β3-adrenergic receptor (Homo sapiens)
- Construct: Full length β3 AR clones (402 amino acids) containing the last 6 amino acids of hβ3—AR are prepared; expressed in transfected cells; host or cells: CHO cells
- experimental protocol: cAMP response (SPA kit) in CHO cells transfected with human β3 adrenergic receptor
- Format: cell-based
- details: CHO cells expressing human β3-AR; 10^-9 M to 10^-5 M; 30 min at 37° C.; cAMP by SPA; read-out: EC50(β3)
assay endpoint: EC50 (nM)
Write the answer as a number in nM, unit excluded.

For O=C(NCCCC1CCCC1)N1CCC(Nc2ccc(CCNC[C@H](O)COc3ccc(O)cc3)cc2)CC1 the compound record lists EC50 as 50

For O=C(Nc1ccccc1)N1CCC(Sc2ccc(CCNC[C@H](O)COc3ccc(O)cc3)cc2)CC1 the compound record lists EC50 as 101

For COc1cc(OCCCOc2ccccc2)ccc1CCNC(=O)N1CCC(Nc2ccc(CCNC[C@H](O)COc3ccc(O)cc3)cc2)CC1 the compound record lists EC50 as 140

For CN(C(=O)CCNC(=O)N1CCC(Nc2ccc(CCNC[C@H](O)COc3ccc(O)cc3)cc2)CC1)c1ccc(Cl)cc1 the compound record lists EC50 as 53

For O=C(c1cc2cccc([N+](=O)[O-])c2[nH]1)N1CCC(Nc2ccc(CCNC[C@H](O)COc3ccc(O)cc3)cc2)CC1 the compound record lists EC50 as 66

For O=C(NCc1ccc(F)cc1)N1CCC(S(=O)(=O)c2ccc(CCNC[C@H](O)COc3ccc(O)cc3)cc2)CC1 the compound record lists EC50 as 64

For O=C(NCc1cc(F)cc(F)c1)N1CCC(Nc2ccc(CCNC[C@H](O)COc3ccc(O)cc3)cc2)CC1 the compound record lists EC50 as 40

For O=C(c1n[nH]c2ccccc12)N1CCC(Nc2ccc(CCNC[C@H](O)COc3ccc(O)cc3)cc2)CC1 the compound record lists EC50 as 9

For Cc1sccc1C(=O)N1CCC(S(=O)(=O)c2ccc(CCNC[C@H](O)COc3ccc(O)cc3)cc2)CC1 the compound record lists EC50 as 40

For CCCCCCCCS(=O)(=O)N1CCC(Nc2ccc(CCNC[C@H](O)COc3ccc(O)cc3)cc2)CC1 the compound record lists EC50 as 125

For CC(C)CCNC(=O)N1CCC(Nc2ccc(CCNC[C@H](O)COc3ccc(O)cc3)cc2)CC1 the compound record lists EC50 as 133

For O=C(CCNC(=O)N1CCC(Nc2ccc(CCNC[C@H](O)COc3ccc(O)cc3)cc2)CC1)Nc1ccc(F)cc1 the compound record lists EC50 as 21

For CCCCCCCCNC(=O)Nc1ccc(S(=O)(=O)N2CCC(Nc3ccc(CCNC[C@H](O)c4ccc(O)c(NS(C)(=O)=O)c4)cc3)CC2)cc1 the compound record lists EC50 as 1

For Cc1ccc(CCCNC(=O)N2CCC(Nc3ccc(CCNC[C@H](O)COc4ccc(O)cc4)cc3)CC2)cc1 the compound record lists EC50 as 43

For O=C(OCc1cc(F)ccc1F)N1CCC(Nc2ccc(CCNC[C@H](O)COc3ccc(O)cc3)cc2)CC1 the compound record lists EC50 as 100

For CCCCCCCCNC(=O)N1CCC(S(=O)(=O)c2ccc(CCNC[C@H](O)COc3ccc(O)c(C)c3)cc2)CC1 the compound record lists EC50 as 50

For O=C(NCCc1cccc(F)c1)N1CCC(Nc2ccc(CCNC[C@H](O)COc3ccc(O)cc3)cc2)CC1 the compound record lists EC50 as 21

For O=C(O)C1CCN(C(=O)N2CCC(Nc3ccc(CCNC[C@H](O)COc4ccc(O)cc4)cc3)CC2)CC1 the compound record lists EC50 as 134

For O=C(NCC1CCCC1)N1CCC(Nc2ccc(CCNC[C@H](O)COc3ccc(O)cc3)cc2)CC1 the compound record lists EC50 as 106

For O=C(NCc1ccc(-n2cccn2)cc1C(F)(F)F)N1CCC(Nc2ccc(CCNC[C@H](O)COc3ccc(O)cc3)cc2)CC1 the compound record lists EC50 as 62

For CCCCCCNC(=O)N1CCC(S(=O)(=O)c2ccc(CCNC[C@H](O)COc3ccc(O)cc3)cc2)CC1 the compound record lists EC50 as 36

For CCCCCCCCNC(=O)N1CCC(Nc2ccc(CCNC[C@H](O)COc3ccc(O)c(F)c3)cc2)CC1 the compound record lists EC50 as 300

For Cc1ccsc1C(=O)N1CCC(Nc2ccc(CCNC[C@H](O)COc3ccc(O)cc3)cc2)CC1 the compound record lists EC50 as 16
